# System: RXF 393 renal
# Experiment summary: NCI tumour cell line growth inhibition, 48 h

Molecule	TGI
Oc1ccc[n+](Cc2ccccc2)c1	> 100 µM
NC(=O)c1c(Br)n(C2OC(CO)C(O)C2O)c2ncnc(N)c12 (configuration not stated)	12.9 µM
O=C1OC(c2ccccc2)=N/C1=C\c1ccc(Br)cc1	> 100 µM
O=C(OCCO)C1CC2CC1C1(C2)OCCO1 (configuration not stated)	> 100 µM
COc1ccc(-c2nc(N3CCCC3)no2)cc1	> 72.4 µM
CCCNC1=C(C)C(=O)C2=C(C1=O)[C@H](COC(N)=O)[C@]1(OC)[C@@H]3N[C@@H]3CN21	46.4 µM
N#CCC(=O)N1CCCOCCC1	> 100 µM
